Target: Cytochrome P450 3A4 (Homo sapiens) (UniProt P08684)
Sequence (P08684 whole entry, looked up): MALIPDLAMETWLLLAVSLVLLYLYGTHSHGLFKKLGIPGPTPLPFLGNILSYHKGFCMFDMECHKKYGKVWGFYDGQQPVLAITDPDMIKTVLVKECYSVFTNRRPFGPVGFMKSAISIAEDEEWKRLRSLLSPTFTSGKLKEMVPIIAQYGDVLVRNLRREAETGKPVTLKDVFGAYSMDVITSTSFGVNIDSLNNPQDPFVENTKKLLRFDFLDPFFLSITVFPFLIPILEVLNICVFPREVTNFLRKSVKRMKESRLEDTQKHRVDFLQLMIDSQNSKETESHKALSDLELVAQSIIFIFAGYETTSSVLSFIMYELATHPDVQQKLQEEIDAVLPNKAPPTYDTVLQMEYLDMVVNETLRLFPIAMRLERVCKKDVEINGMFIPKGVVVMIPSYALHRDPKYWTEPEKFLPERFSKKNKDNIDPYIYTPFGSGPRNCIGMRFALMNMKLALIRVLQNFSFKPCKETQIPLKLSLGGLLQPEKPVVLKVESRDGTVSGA
Test: qHTS Assay for Activators of Cytochrome P450 3A4 (AID 885); also: nearly all actives have a fitted effect of over 65% in size
Conditions: recombinant CYP3A4, Luciferin-PPXE luminescence, 60 min; series mostly up to 57.1 µM
Active and inactive are the calls of the source. Calls follow the shape of the dose curve; as a rule, active = well fitted activation curve with a large enough effect; inconclusive = small, poorly fitted or top-dose-only effect; inactive = no such curve, though single readings can be large or run the other way.
Observation type: activity change, positive = activation

CCC1=C2CC[C@H]3C(=O)N(CC)C(=O)[C@H]3[C@H]2[C@@]2(C)C(=NCCc3c[nH]c4ccccc34)OC(=O)N2C1=O :: inactive
CCC1=C(OC(=O)N(CC)CC)N2C(=O)OC(=NCC3CC3)[C@]2(C)[C@H]2C1=CC[C@H]1C(=O)N(c3ccccc3)C(=O)[C@H]12 :: inactive
COC(=O)c1ccc(C23CC4(C2)[C@H](CN(C)[C@@H]4c2ccccc2)C3c2ccc(C(F)(F)F)cc2)cc1 (some centres undefined) :: inactive
CC(C)=NO[C@@H](C)CN1CCCCc2nc(C)c(C)cc21 :: -46.4% [at 11.4 µM] (inactive)

* * *

Biological target: Cytochrome P450 3A4 (Homo sapiens)
Assay: qHTS Assay for Inhibitors and Substrates of Cytochrome P450 3A4 (AID 884); also: nearly all actives have a fitted effect of over 50% in size
Settings: recombinant CYP3A4, Luciferin-PPXE luminescence; series mostly up to 57.1 µM
Inconclusive results are not listed. Activity calls are given as the source filed them. Calls come from the whole dose curve; as a rule, active = well fitted inhibition curve with a large enough effect; inconclusive = small, poorly fitted or top-dose-only effect; inactive = no such curve, though single readings can be large or run the other way.
Lab note: assign the record to one of true (1) for active, false (0) for inactive

Query: Hi team, can someone confirm the assay call for CCCCCCN(C(=O)CCCCCN1C(=O)NC(c2ccc(-c3ccccc3)cc2)C(C(=O)OCc2ccccc2)=C1C)C(C(=O)NCCCC)c1ccc(O)cc1 (centres undefined) ?
Reply: true (1)

Query: Hi team, can someone confirm the assay call for COCCN=C1OC(=O)N2C(=O)C3=C4C(C[C@H]5C(=O)N(c6ccccc6)C(=O)[C@H]5[C@H]4[C@@]12Cc1ccccc1)[C@H]1C(=O)N(c2ccccc2)C(=O)[C@H]1[C@H]3C (some centres undefined) ?
Reply: true (1)

Query: Hi team, can someone confirm the assay call for C=C(CO)C1Cc2c(ccc3c(=O)c4c(oc23)COc2cc(OC)c(OC)cc2-4)O1 (centres undefined) ?
Reply: false (0)

Query: Hi team, can someone confirm the assay call for COc1ccc(B(O)O)cc1 ?
Reply: false (0)

* * *

Biological target: Cytochrome P450 3A4 (Homo sapiens)
Assay: qHTS Assay for Inhibitors and Substrates of Cytochrome P450 3A4 (AID 884); also: nearly all actives have a fitted effect of over 50% in size
Conditions: recombinant CYP3A4, Luciferin-PPXE luminescence; series mostly up to 57.1 µM
Records with an inconclusive call do not appear. Activity calls are given as the source filed them. The call rests on the fitted dose curve; in most records, active means well fitted inhibition curve with a large enough effect; inconclusive means small, poorly fitted or top-dose-only effect; inactive means no such curve, though single readings can be large or run the other way.
Lab note: assign the record to one of TRUE = active, FALSE = inactive

Query: Hi team, can someone confirm the assay call for COc1cccc([C@@H]2Oc3ccc(OC)cc3/C(=N/O[C@@H](C)c3cn([C@H]4COC[C@H]4O)nn3)[C@@H]2O)c1 ?
Reply: TRUE

Query: Hi team, can someone confirm the assay call for CCC1=C(OC(=O)N(CC)CC)N2C(=O)OC(=NCCOC)[C@]2(Cc2ccccc2)[C@H]2C1=CC[C@H]1C(=O)NC(=O)[C@H]12 ?
Reply: TRUE

Query: Hi team, can someone confirm the assay call for O=C(O)c1sccc1S(=O)(=O)Nc1ccccc1N1CCCCC1 ?
Reply: TRUE

Query: Hi team, can someone confirm the assay call for Cn1c(N)c(C(=O)COC(=O)c2cc(-c3ccccc3)nc3ccccc23)c(=O)n(C)c1=O ?
Reply: TRUE

Query: Hi team, can someone confirm the assay call for Cn1c(=O)c(C(=O)COC(=O)c2cc(-c3ccco3)nc3ccccc23)c(N)n(CC2CC2)c1=O ?
Reply: TRUE

Query: Hi team, can someone confirm the assay call for COC(=O)c1ccc(C(/C=C/[C@@H](C)C(=O)NCc2ccc(OC)c(O)c2)NC(=O)OCc2ccccc2)cc1 (some centres not stated) ?
Reply: TRUE

Query: Hi team, can someone confirm the assay call for CC1/C=C/C=C/C=C/C=C/C=C/C=C/C=C/C(OC2OC(C)C(O)C(N)C2O)CC2O[C@@](O)(CC(O)CC(O)C(O)CCC(O)CC(O)CC(=O)OC(C)[C@H](C)C1O)CC(O)C2C(=O)O (some centres not stated) ?
Reply: FALSE

* * *

Biological target: Glucocorticoid receptor (Homo sapiens)
Assay: qHTS assay for small molecule agonists of glucocorticoid receptor signaling (AID 588532);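 also: 100% = dexamethasone at 0.1 µM and 0% = DMSO only wells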
Settings: HeLa MMTV-bla, beta-lactamase ratio, agonist, 18 h; active compounds read high; percent of dexamethasone control, DMSO zero
Records with an inconclusive call do not appear.
Observation type: activation (%)
Note: unit % is implicit; provide only the numeric part.

Query: // lookup activation for Oc1ccc(C(c2ccc(O)cc2)C(Cl)(Cl)Cl)cc1
Reply: 1.17

Query: // lookup activation for CSc1ccc(Cl)cc1
Reply: -2.12

Query: // lookup activation for C/C(=C\C(C)CC(C)CC(C)C)C1CC(=O)OC1=O (centres undefined)
Reply: -4.02

Query: // lookup activation for C=CCOc1nc(OCC=C)nc(OCC=C)n1
Reply: -1.63

* * *

Molecular target: Vitamin D3 receptor (Homo sapiens)
Assay: qHTS assay for small molecule antagonists of vitamin D receptor signaling (AID 588541);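 also: receptor activated by calcitriol during compound treatment; % is scaled to controls: 0 for no effect and ±100 for the full control effect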
Details: HEK293T VDR-UAS-bla, beta-lactamase ratio, antagonist mode; series mostly up to 76.7 µM
Results filed as inconclusive are left out. The source made the active and inactive calls. Calls come from the whole dose curve.
Observation type: outcome

Take a look at these entries with their results.
CCCCCCCC/C=C\CCCCCCCCCCCCC :: inactive
O=C=NCCCCCCN=C=O :: inactive
C[Si](Cl)(Cl)[Si](C)(Cl)Cl :: inactive
O=C(Cl)c1cccc(C(=O)Cl)c1 :: inactive
c1cc(-c2ccncc2)ccn1 :: inactive

Query: // lookup outcome for Cc1ccc(N)c(S(=O)(=O)O)c1
Reply: inactive

Query: // lookup outcome for c1ccc(OCCOc2ccccc2)cc1
Reply: inactive

Query: // lookup outcome for CC(C)OC(=O)c1ccccc1C(=O)OC(C)C
Reply: inactive

* * *

For each entry below, report its max response value.
Assay: qHTS assay for cell viability of HEK293 cells (AID 743288); also: % is scaled to controls: 0 for no effect and ±100 for the full control effect; nearly all actives have a fitted effect of over 50% in size
Conditions: ATP luminescence (CellTiter-Glo), 18 h; active compounds read low
Results filed as inconclusive are left out.
Note: unit % is implicit; provide only the numeric part.

Query: // lookup max response for CCCCNS(=O)(=O)c1ccccc1
Reply: -3.87

Query: // lookup max response for CN(C)Cc1cc(CN(C)C)c(O)c(CN(C)C)c1
Reply: -7.71

Query: // lookup max response for O=C1CCCC/C=C/CCCCCCCCCO1
Reply: 4.39

Query: // lookup max response for CSc1ccc(Cl)cc1
Reply: -19.5

Query: // lookup max response for CCOC(=O)c1ccccc1C
Reply: 0.0695

Query: // lookup max response for COC(=O)CCSCCC(=O)OC
Reply: -5.77

Query: // lookup max response for O=C(c1ccccc1)c1ccc(O)c(O)c1O
Reply: -12.1

Query: // lookup max response for C1=C/CC/C=C/CC/C=C/CC/1
Reply: -8.62

Query: // lookup max response for CCN(Cc1cccc(S(=O)(=O)O)c1)c1ccc(C(=C2C=CC(=[N+](CC)Cc3cccc(S(=O)(=O)[O-])c3)C=C2)c2ccccc2)cc1
Reply: -13.6

Query: // lookup max response for O=C(O)CN(CCO)CCN(CC(=O)O)CC(=O)O
Reply: -11.1

Query: // lookup max response for CCCCCCCC/C=C\CCCCCCCCCCCCC
Reply: -4.21

Query: // lookup max response for CC(C)(C)c1cccc(C(C)(C)C)c1O
Reply: 0.51

Query: // lookup max response for O=C1NC(=O)C(Cc2ccc(OCCN3COc4ccccc4C3=O)cc2)S1 (stereo not given)
Reply: -10.2

Query: // lookup max response for CN(C)C(=O)Nc1ccccc1
Reply: 1.22

Query: // lookup max response for Cc1ccc(N=Nc2c(O)ccc3ccccc23)c(C)c1
Reply: -21.3

Query: // lookup max response for Oc1ccc(Nc2ccccc2)cc1
Reply: -10.5

Query: // lookup max response for C=C(C)C(=O)OCC[N+](C)(C)C
Reply: -15.2

Query: // lookup max response for O=C1CCCCCCCCCCC1
Reply: -4.39

Query: // lookup max response for Cl[Si](Cl)(Cl)c1ccccc1
Reply: -13.3

Query: // lookup max response for CCOCCOCCOCCO
Reply: -2.83

Query: // lookup max response for COc1cc(Cl)c(OC)cc1N
Reply: -8.15

Query: // lookup max response for CCCCCc1ccc(N)cc1
Reply: -6.55

Query: // lookup max response for OCC(CO)(CO)COCC(CO)(CO)CO
Reply: -12.4

Query: // lookup max response for CCNc1nc(NC(C)CC)nc(OC)n1 (stereo not given)
Reply: -2.08

Query: // lookup max response for CCCCOC(=O)/C=C\C(=O)OCCCC
Reply: -1.23

Query: // lookup max response for O=C(O)CCCCCCCCCCC(=O)O
Reply: -10.8

Query: // lookup max response for CC(Cl)(Cl)C(=O)OCCOc1cc(Cl)c(Cl)cc1Cl
Reply: -9.39

Query: // lookup max response for Cc1ccc(C(C)(C)C)c(O)c1
Reply: -6.81

Query: // lookup max response for C=CCCCCCCCCC=O
Reply: -14

Query: // lookup max response for COCCOCCOCCOC
Reply: -11.9
